Target: T4 DNA polymerase (Enterobacteria phage T4)
Sequence (P04415 1-898): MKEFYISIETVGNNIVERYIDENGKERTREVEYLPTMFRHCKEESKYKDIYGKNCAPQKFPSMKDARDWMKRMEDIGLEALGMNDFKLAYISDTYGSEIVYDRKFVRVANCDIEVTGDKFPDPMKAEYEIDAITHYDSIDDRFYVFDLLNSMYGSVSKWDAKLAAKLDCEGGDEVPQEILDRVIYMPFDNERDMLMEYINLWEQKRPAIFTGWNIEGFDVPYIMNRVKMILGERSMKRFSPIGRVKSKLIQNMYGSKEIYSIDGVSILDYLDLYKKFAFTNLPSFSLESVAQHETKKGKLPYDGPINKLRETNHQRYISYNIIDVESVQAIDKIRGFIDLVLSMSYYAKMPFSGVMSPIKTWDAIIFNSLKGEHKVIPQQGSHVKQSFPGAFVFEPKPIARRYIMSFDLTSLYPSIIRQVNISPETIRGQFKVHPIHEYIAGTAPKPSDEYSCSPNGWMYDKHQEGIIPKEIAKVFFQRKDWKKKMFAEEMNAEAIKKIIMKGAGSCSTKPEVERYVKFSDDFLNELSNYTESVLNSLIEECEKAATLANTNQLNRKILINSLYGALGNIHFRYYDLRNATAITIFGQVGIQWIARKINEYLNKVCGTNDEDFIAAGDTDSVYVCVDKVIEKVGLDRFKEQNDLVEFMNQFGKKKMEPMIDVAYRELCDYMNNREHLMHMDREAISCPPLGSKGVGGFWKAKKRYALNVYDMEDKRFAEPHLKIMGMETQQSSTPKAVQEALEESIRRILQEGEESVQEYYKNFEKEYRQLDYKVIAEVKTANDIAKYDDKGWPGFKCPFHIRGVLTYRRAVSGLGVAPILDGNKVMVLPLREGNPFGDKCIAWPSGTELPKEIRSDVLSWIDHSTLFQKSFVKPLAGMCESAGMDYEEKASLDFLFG
endpoint-label: IC50

• CC1=CC[C@H]2C(C)(C)CCC[C@]2(C)[C@H]1CCCCCCCCCCCCCCCCC(=O)O (relative stereo) [compound 11] = > 200 µM

* * *

target: mammalian pols; experiment: DNA polymerase assays, all mammalian pols tested; details: all mammalian pols tested (α, β, γ, δ, ε, η, ι, κ, λ); read-out: range of IC50 values for mammalian pols
endpoint-label: IC50

* CC1=CC[C@H]2C(C)(C)CCC[C@]2(C)[C@H]1CCCCCCCCCCCCCCCCC(=O)O (relative stereo) [compound 11] | 3.22 to 8.76 µM

* * *

molecular target: Bovine Deoxyribonuclease I (Bos taurus); construct: Bovine pancreas deoxyribonuclease I (DNase I) was obtained from Stratagene Cloning Systems; purchased Stratagene Cloning Systems (La Jolla, CA, USA); host or cells: bovine pancreas; test: Deoxyribonuclease I assay; assay type: biochemical
Sequence (P00639 23-282): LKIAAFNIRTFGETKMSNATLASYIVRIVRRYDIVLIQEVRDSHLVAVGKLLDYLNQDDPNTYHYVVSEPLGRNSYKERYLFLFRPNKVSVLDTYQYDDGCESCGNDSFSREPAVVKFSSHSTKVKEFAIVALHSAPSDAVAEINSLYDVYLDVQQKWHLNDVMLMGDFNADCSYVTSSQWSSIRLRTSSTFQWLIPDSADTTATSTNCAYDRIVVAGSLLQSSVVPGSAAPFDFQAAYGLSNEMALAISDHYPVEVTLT
endpoint-label: IC50

* CC1=CC[C@H]2C(C)(C)CCC[C@]2(C)[C@H]1CCCCCCCCCCCCCCCCC(=O)O (relative stereo) | > 200 µM

* * *

molecular target: T4 Polynucleotide kinase (Enterobacteria phage T4)
Sequence (P06855 whole entry): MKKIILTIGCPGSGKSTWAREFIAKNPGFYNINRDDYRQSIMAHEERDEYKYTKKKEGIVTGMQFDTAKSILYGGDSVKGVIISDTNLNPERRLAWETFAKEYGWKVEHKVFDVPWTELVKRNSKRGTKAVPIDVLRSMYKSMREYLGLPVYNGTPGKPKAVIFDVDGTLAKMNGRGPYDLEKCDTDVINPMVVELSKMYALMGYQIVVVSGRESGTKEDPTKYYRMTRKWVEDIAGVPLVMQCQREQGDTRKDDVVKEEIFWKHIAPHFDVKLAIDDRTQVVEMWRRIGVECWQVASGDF
pIC50: −log10 of the molar value.
endpoint-label: pIC50

- CC1=CC[C@H]2C(C)(C)CCC[C@]2(C)[C@H]1CCCCCCCCCCCCCCCCC(=O)O (relative stereo): < 3.70

* * *

biological target: Cherry salmon DNA polymerase δ (Oncorhynchus masou)
Sequence (Z9UCE0HTX2 1-856): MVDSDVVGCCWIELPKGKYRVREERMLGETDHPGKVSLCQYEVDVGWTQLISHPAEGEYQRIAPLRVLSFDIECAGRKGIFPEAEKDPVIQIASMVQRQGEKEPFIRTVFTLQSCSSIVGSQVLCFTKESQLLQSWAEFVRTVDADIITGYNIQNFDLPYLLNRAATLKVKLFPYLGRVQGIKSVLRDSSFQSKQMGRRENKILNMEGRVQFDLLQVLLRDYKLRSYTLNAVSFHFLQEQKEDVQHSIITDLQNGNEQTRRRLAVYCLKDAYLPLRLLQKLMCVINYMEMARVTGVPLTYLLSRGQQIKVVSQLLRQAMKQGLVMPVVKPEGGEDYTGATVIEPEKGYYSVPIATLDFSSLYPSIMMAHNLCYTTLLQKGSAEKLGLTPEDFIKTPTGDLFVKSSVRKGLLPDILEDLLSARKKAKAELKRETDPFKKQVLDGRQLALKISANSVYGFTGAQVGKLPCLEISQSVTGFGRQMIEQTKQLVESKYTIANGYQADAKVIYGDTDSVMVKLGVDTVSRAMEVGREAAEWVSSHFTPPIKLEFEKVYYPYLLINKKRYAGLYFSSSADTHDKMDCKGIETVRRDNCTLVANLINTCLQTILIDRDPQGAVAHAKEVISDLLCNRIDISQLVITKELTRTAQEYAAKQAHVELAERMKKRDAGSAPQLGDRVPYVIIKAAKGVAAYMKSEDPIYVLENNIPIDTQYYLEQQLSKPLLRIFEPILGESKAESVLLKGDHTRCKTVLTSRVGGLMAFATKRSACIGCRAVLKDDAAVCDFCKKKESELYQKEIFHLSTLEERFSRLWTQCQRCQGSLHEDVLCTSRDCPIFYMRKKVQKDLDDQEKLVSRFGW
pIC50: −log10 of the molar value.
endpoint-label: pIC50

* CC1=CC[C@H]2C(C)(C)CCC[C@]2(C)[C@H]1CCCCCCCCCCCCCCCCC(=O)O (relative stereo) [compound 11] | 5.37
